The reader will find reported percent of parent values listed item by item below.
B1: Cas3 of E. coli K12 Type I-E CRISPR/Cas complex [E. coli K12] / Cas2 of E. coli K12 Type I-E CRISPR/Cas complex [E. coli K12] (parent complex)
chain 1: MEPFKYICHYWGKSSKSLTKGNDIHLLIYHCLDVAAVADCWWDQSVVLQNTFCRNEMLSKQRVKAWLLFFIALHDIGKFDIRFQYKSAESWLKLNPATPSLNGPSTQMCRKFNHGAAGLYWFNQDSLSEQSLGDFFSFFDAAPHPYESWFPWVEAVTGHHGFILHSQDQDKSRWEMPASLASYAAQDKQAREEWISVLEALFLTPAGLSINDIPPDCSSLLAGFCSLADWLGSWTTTNTFLFNEDAPSDINALRTYFQDRQQDASRVLELSGLVSNKRCYEGVHALLDNGYQPRQLQVLVDALPVAPGLTVIEAPTGSGKTETALAYAWKLIDQQIADSVIFALPTQATANAMLTRMEASASHLFSSPNLILAHGNSRFNHLFQSIKSRAITEQGQEEAWVQCCQWLSQSNKKVFLGQIGVCTIDQVLISVLPVKHRFIRGLGIGRSVLIVDEVHAYDTYMNGLLEAVLKAQADVGGSVILLSATLPMKQKQKLLDTYGLHTDPVENNSAYPLINWRGVNGAQRFDLLAHPEQLPPRFSIQPEPICLADMLPDLTMLERMIAAANAGAQVCLICNLVDVAQVCYQRLKELNNTQVDIDLFHARFTLNDRREKENRVISNFGKNGKRNVGRILVATQVVEQSLDVDFDWLITQHCPADLLFQRLGRLHRHHRKYRPAGFEIPVATILLPDGEGYGRHEHIYSNVRVMWRTQQHIEELNGASLFFPDAYRQWLDSIYDDAEMDEPEWVGNGMDKFESAECEKRFKARKVLQWAEEYSLQDNDETILAVTRDGEMSLPLLPYVQTSSGKQLLDGQVYEDLSHEQQYEALALNRVNVPFTWKRSFSEVVDEDGLLWLEGKQNLDGWVWQGNSIVITYTGDEGMTRVIPANPK
chain 2: MSMLVVVTENVPPRLRGRLAIWLLEVRAGVYVGDVSAKIREMIWEQIAGLAEEGNVVMAWATNTETGFEFQTFGLNRRTPVDLDGLRLVSFLPV

Variants of: B1
assay.notes: SPEC system (split protease-E. coli ClpXP) in E. coli cells; parent: 100; read off a plot
measured.quantity: percent of parent

>  <mutation.name>
chain 1 K320N

>  <measured.quantity>
percent of parent

>  <result>
~130%

$$$$
>  <mutation.name>
chain 1 H74A

>  <measured.quantity>
percent of parent

>  <result>
~130%

$$$$
>  <mutation.name>
chain 1 D452N

>  <measured.quantity>
percent of parent

>  <result>
~130%

$$$$
>  <mutation.name>
chain 1 K78A

>  <measured.quantity>
percent of parent

>  <result>
~110%

$$$$
